Test readout: melting point

>>> reported_measurement("COC(=O)c1ccc(Nc2ccc(O)c3ccccc23)cc1")
"188 to 190 °C"
>>> reported_measurement("COc1ccc(Nc2ccc(OC)c3ccccc23)cc1C(=O)O")
"153 to 154 °C"

Using known records, supply melting point for COc1ccc(Nc2ccccc2)c2ccccc12
141 to 143 °C

Using known records, supply melting point for COc1ccccc1Nc1ccc(OC)c2ccccc12
108 to 110 °C

----------
Test: Blood brain barrier crossing: plasma and brain concentrations after s.c. injection
Assay type: in vivo
Settings: mouse, plasma, sc; mice, s.c. 25 mg/kg, 240 min; read-out: Plasma (mean ± SD)
Test readout: concentration at 240 min (ng/mL)
Kindly provide the numeric value in ng/mL only, without the unit symbol.

Using known records, supply concentration at 240 min for COc1ccc(Nc2ccc(OC)c3ccccc23)cc1 [ST2175]
159

----------
Assay: Blood brain barrier crossing: plasma and brain concentrations after s.c. injection
Format: in vivo
Conditions: mouse, plasma, sc; mice, s.c. 25 mg/kg, 120 min; read-out: Plasma (mean ± SD)
Test readout: concentration at 120 min (ng/mL)
Kindly provide the numeric value in ng/mL only, without the unit symbol.

Using known records, supply concentration at 120 min for COc1ccc(Nc2ccc(OC)c3ccccc23)cc1
142

----------
Assay: Blood brain barrier crossing: plasma and brain concentrations after s.c. injection
Assay type: in vivo
Conditions: mouse, brain, sc, 25 mg/kg, mice, s.c. 25 mg/kg, 360 min; read-out: Brain to Plasma ratio
Test readout: Kp at 6 h
Lab note: write the figure by itself, no unit.

Using known records, supply Kp at 6 h for COc1ccc(Nc2ccc(OC)c3ccccc23)cc1
1.7

----------
Experiment: Blood brain barrier crossing: plasma and brain concentrations after s.c. injection
Assay type: in vivo
Details: mouse, brain, sc; mice, s.c. 25 mg/kg, 180 min; read-out: Brain (mean ± SD)
Test readout: concentration at 180 min (ng/g)
Kindly provide the numeric value in ng/g only, without the unit symbol.

Using known records, supply concentration at 180 min for COc1ccc(Nc2ccc(OC)c3ccccc23)cc1
253

----------
Experiment: Blood brain barrier crossing: plasma and brain concentrations after s.c. injection
Assay type: in vivo
Conditions: mouse, brain, sc; mice, s.c. 25 mg/kg, 30 min; read-out: Brain (mean ± SD)
Test readout: concentration at 30 min (ng/g)
Kindly provide the numeric value in ng/g only, without the unit symbol.

Using known records, supply concentration at 30 min for COc1ccc(Nc2ccc(OC)c3ccccc23)cc1
398

----------
Assay: Blood brain barrier crossing: plasma and brain concentrations after s.c. injection
Type: in vivo
Conditions: mouse, brain, sc, 25 mg/kg, mice, s.c. 25 mg/kg, 120 min; read-out: Brain to Plasma ratio
Test readout: Kp at 2 h
Lab note: write the figure by itself, no unit.

Using known records, supply Kp at 2 h for COc1ccc(Nc2ccc(OC)c3ccccc23)cc1
2

----------
Experiment: Blood brain barrier crossing: plasma and brain concentrations after s.c. injection
Format: in vivo
Conditions: mouse, brain, sc, 25 mg/kg, mice, s.c. 25 mg/kg; read-out: AUCt, Brain to Plasma ratio
Test readout: Kp
Lab note: write the figure by itself, no unit.

Using known records, supply Kp for COc1ccc(Nc2ccc(OC)c3ccccc23)cc1
1.9

----------
Test: Blood brain barrier crossing: plasma and brain concentrations after s.c. injection
Assay type: in vivo
Conditions: mouse, sc; mice, s.c. 25 mg/kg, brain; read-out: tmax, Brain (converted)
Test readout: Tmax (h)
Kindly provide the numeric value in h only, without the unit symbol.

Using known records, supply Tmax for COc1ccc(Nc2ccc(OC)c3ccccc23)cc1
1

----------
Experiment: Blood brain barrier crossing: plasma and brain concentrations after s.c. injection
Type: in vivo
Settings: mouse, brain, sc, 25 mg/kg, mice, s.c. 25 mg/kg, 240 min; read-out: Brain to Plasma ratio
Test readout: Kp at 4 h
Lab note: write the figure by itself, no unit.

Using known records, supply Kp at 4 h for COc1ccc(Nc2ccc(OC)c3ccccc23)cc1
1.3

----------
Assay: Blood brain barrier crossing: plasma and brain concentrations after s.c. injection
Format: in vivo
Settings: mouse, brain, sc; mice, s.c. 25 mg/kg, 120 min; read-out: Brain (mean ± SD)
Test readout: concentration at 120 min (ng/g)
Kindly provide the numeric value in ng/g only, without the unit symbol.

Using known records, supply concentration at 120 min for COc1ccc(Nc2ccc(OC)c3ccccc23)cc1 [ST2175]
289

----------
Experiment: Blood brain barrier crossing: plasma and brain concentrations after s.c. injection
Format: in vivo
Details: mouse, brain, sc, 25 mg/kg, mice, s.c. 25 mg/kg, 30 min; read-out: Brain to Plasma ratio
Test readout: Kp at 0.5 h
Lab note: write the figure by itself, no unit.

Using known records, supply Kp at 0.5 h for COc1ccc(Nc2ccc(OC)c3ccccc23)cc1
3.6

----------
Target: peptide βA1-42 (Homo sapiens)
Construct: The β-A(1-42) was dissolved in a mixture of Acetonitrile and distilled water
Sequence (P05067 672-713): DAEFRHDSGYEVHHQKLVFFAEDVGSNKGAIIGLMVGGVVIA
Experiment: Anti-aggregating activity on peptide βA1-42, thioflavin T fluorescence
Type: biochemical
Conditions: thioflavin T binding, aggregate + non aggregate β-A(1-42), 37° C., 24 hours; read-out: IC50 (dose reducing the aggregate formation of the 50%)
Counter-ions that a name gives are not always drawn.
Test readout: IC50 (µM)

>>> reported_measurement("Oc1c(Nc2ccccc2)ccc2ccccc12")
2.4
>>> reported_measurement("Oc1ccc(Nc2ccccc2)c2ccccc12")
5.43
>>> reported_measurement("CSc1ccc(Nc2ccc(N(C)C)c3ccccc23)cc1 [ST3458, dihydrochloride]")
2.2
>>> reported_measurement("O=C(O)c1ccc(Nc2ccc3ccccc3c2O)cc1")
2.6
>>> reported_measurement("Oc1ccc2ccccc2c1Cc1c(O)ccc2ccccc12 [ST1859, reference compound]")
23.5
>>> reported_measurement("COc1ccc2ccccc2c1Nc1c(OC)ccc2ccccc12")
5.7
>>> reported_measurement("Oc1ccc(Sc2ccc(O)c3ccccc23)cc1 [ST3501, 4-[(4-hydroxyphenyl)thio]-1-naphthol]")
7.2
>>> reported_measurement("COc1ccc(Nc2ccc(OC)c3ccccc23)cc1")
5.59
>>> reported_measurement("Oc1ccc(Nc2ccc(O)c3ccccc23)cc1 [ST2177, 4-(4-hydroxyanilino)-1-naphthol]")
1
>>> reported_measurement("COc1ccc(Nc2ccc([N+](=O)[O-])c3ccccc23)cc1")
2.7

[P] COC(=O)c1ccc(Nc2ccc(O)c3ccccc23)cc1
[Q] O=C(O)c1ccccc1Nc1c(O)ccc2ccccc12
Of the two listed items, which has the higher IC50? First: P Second: Q Record your answer as the label of the chosen record.
Q
(Q: 14.1 µM, P: 5.13 µM)

----------
Assay: Blood brain barrier crossing: plasma and brain concentrations after s.c. injection
Format: in vivo
Conditions: mouse, plasma, sc; mice, s.c. 25 mg/kg, 15 min; read-out: Plasma (mean ± SD)
Procedure: In order to obtain basic information on the concentration achieved in brain of rodents after parental doses and their relationship with plasma concentrations, mice and rats were used. […] Compounds were determined in plasma by high-performance liquid chromatography (HPLC) after a solid liquid extraction procedure. […] The residue was dissolved in the mobile phase centrifuged and analyzed by HPLC with UV detection (224 nm). […]
Test readout: concentration at 15 min (ng/mL)
Kindly provide the numeric value in ng/mL only, without the unit symbol.

Using known records, supply concentration at 15 min for COc1ccc(Nc2ccc(OC)c3ccccc23)cc1
138

----------
Assay: Blood brain barrier crossing: plasma and brain concentrations after s.c. injection
Type: in vivo
Details: mouse, plasma, sc; mice, s.c. 25 mg/kg, 30 min; read-out: Plasma (mean ± SD)
Test readout: concentration at 30 min (ng/mL)
Kindly provide the numeric value in ng/mL only, without the unit symbol.

Using known records, supply concentration at 30 min for COc1ccc(Nc2ccc(OC)c3ccccc23)cc1
109

----------
Assay: Blood brain barrier crossing: plasma and brain concentrations after s.c. injection
Format: in vivo
Conditions: mouse, brain, sc; mice, s.c. 25 mg/kg, 15 min; read-out: Brain (mean ± SD)
Test readout: concentration at 15 min (ng/g)
Kindly provide the numeric value in ng/g only, without the unit symbol.

Using known records, supply concentration at 15 min for COc1ccc(Nc2ccc(OC)c3ccccc23)cc1 [ST2175]
321

----------
Assay: Blood brain barrier crossing: plasma and brain concentrations after s.c. injection
Format: in vivo
Details: mouse, brain, sc, 25 mg/kg, mice, s.c. 25 mg/kg, 180 min; read-out: Brain to Plasma ratio
Test readout: Kp at 3 h
Lab note: write the figure by itself, no unit.

Using known records, supply Kp at 3 h for COc1ccc(Nc2ccc(OC)c3ccccc23)cc1 [ST2175]
1.8
